Could you please report measured Plant response rating, Oilseed Rape for the items listed next?
tested on: oilseed rape (Brassica napus); experiment: Test D controlled growth environment herbicide test, pre- and postemergence; format: in vivo; settings: Preemergence, 250 g ai/ha; scale 0 to 100 (0 no effect, 100 complete control)
Numbers only.

Guide cases for Plant response rating, Oilseed Rape, answers given:
{"columns": ["structure-notation", "measured-target", "Plant response rating, Oilseed Rape"],
 "data": [
  ["COc1nn(C)c(=O)c(-c2c(C)ccc3ccccc23)c1OC(=O)OC(C)C", "oilseed rape (Brassica napus)", 65],
  ["CC(=O)Oc1c(Br)nn(C)c(=O)c1-c1c(C)ccc2ccccc12", "oilseed rape (Brassica napus)", 100],
  ["COC(=O)Oc1c(C)nn(C)c(=O)c1-c1c(C)sc2c(C)cc(C)cc12", "oilseed rape (Brassica napus)", 100],
  ["CCC(=O)Oc1c(C)nn(C)c(=O)c1-c1c(C)sc2c(C)cc(C)cc12", "oilseed rape (Brassica napus)", 25]
]}

Please give Plant response rating, Oilseed Rape for each item listed below.
1. CC(=O)Oc1c(C)nn(C)c(=O)c1-c1c(C)sc2c(C)cc(C)cc12
2. CCOC(=O)Oc1c(C)nn(C)c(=O)c1-c1c(C)ccc2ccccc12

1. 35
2. 70
